Provenance of the data: ChEMBL document CHEMBL1671716

Give measured Activity for each item. Keep answers brief.
test system: Prevotella bivia; test: Antimicrobial activity against Prevotella bivia assessed as percent susceptible isolates after 48 hrs by agar dilution method; type: functional
Report only the number, with the unit % understood.

Asked: Item `COc1c(N2C[C@@H]3CCCN[C@@H]3C2)c(F)cc2c(=O)c(C(=O)O)cn(C3CC3)c12` : provide Activity
Given back: 56

Asked: Item `C[C@@H](O)[C@H]1C(=O)N2C(C(=O)O)=C(S[C@@H]3CN[C@H](C(=O)N(C)C)C3)[C@H](C)[C@H]12` : provide Activity
Given back: 100

Asked: Item `CCC[C@@H]1C[C@@H](C(=O)N[C@@H]([C@H]2O[C@H](SC)[C@H](O)[C@@H](O)[C@H]2O)[C@H](C)Cl)N(C)C1` : provide Activity
Given back: 50

Asked: Item C[C@@H](O)[C@H]1C(=O)N2C(C(=O)O)=C(SCCNC=N)C[C@H]12 [IMIPENEM ANHYDROUS] : provide Activity
Given back: 100

Asked: Item `CCN1CCN(C(=O)N[C@@H](C(=O)N[C@@H]2C(=O)N3[C@@H]2SC(C)(C)[C@@H]3C(=O)O)c2ccccc2)C(=O)C1=O` : provide Activity
Given back: 78

Asked: Item `Cc1ncc([N+](=O)[O-])n1CCO` : provide Activity
Given back: 100

Asked: Item `CO[C@@]1(NC(=O)Cc2cccs2)C(=O)N2C(C(=O)O)=C(COC(N)=O)CS[C@@H]21` : provide Activity
Given back: 89

Asked: Item CO[C@@]1(NC(=O)C2SC(=C(C(N)=O)C(=O)O)S2)C(=O)N2C(C(=O)O)=C(CSc3nnnn3C)CS[C@@H]21 (some centres undefined) : provide Activity
Given back: 72

Asked: Item `O=C(N[C@H](CO)[C@H](O)c1ccc([N+](=O)[O-])cc1)C(Cl)Cl` : provide Activity
Given back: 100

---

tested on: Bacteroides ovatus; assay: Antimicrobial activity against Bacteroides ovatus assessed as percent resistant isolates after 48 hrs by agar dilution method; format: functional
One threshold, 4%, splits the recorded Activity values: lower ones are satisfied, equal or higher ones are not satisfied.

Asked: Problem: For the compound `COc1c(N2C[C@@H]3CCCN[C@@H]3C2)c(F)cc2c(=O)c(C(=O)O)cn(C3CC3)c12` , is Activity under 4%?
Given back: not satisfied

Asked: Problem: For the compound `CCN1CCN(C(=O)N[C@@H](C(=O)N[C@@H]2C(=O)N3[C@@H]2SC(C)(C)[C@@H]3C(=O)O)c2ccccc2)C(=O)C1=O` , is Activity under 4%?
Given back: not satisfied

Asked: Problem: For the compound `Cc1ncc([N+](=O)[O-])n1CCO` , is Activity under 4%?
Given back: satisfied

Asked: Problem: For the compound `C[C@@H](O)[C@H]1C(=O)N2C(C(=O)O)=C(S[C@@H]3CN[C@H](C(=O)N(C)C)C3)[C@H](C)[C@H]12` , is Activity under 4%?
Given back: satisfied

Asked: Problem: For the compound `CO[C@@]1(NC(=O)Cc2cccs2)C(=O)N2C(C(=O)O)=C(COC(N)=O)CS[C@@H]21` , is Activity under 4%?
Given back: not satisfied

Asked: Problem: For the compound CO[C@@]1(NC(=O)C2SC(=C(C(N)=O)C(=O)O)S2)C(=O)N2C(C(=O)O)=C(CSc3nnnn3C)CS[C@@H]21 (some centres undefined) , is Activity under 4%?
Given back: not satisfied

Asked: Problem: For the compound `O=C(N[C@H](CO)[C@H](O)c1ccc([N+](=O)[O-])cc1)C(Cl)Cl` , is Activity under 4%?
Given back: satisfied

Asked: Problem: For the compound `CCC[C@@H]1C[C@@H](C(=O)N[C@@H]([C@H]2O[C@H](SC)[C@H](O)[C@@H](O)[C@H]2O)[C@H](C)Cl)N(C)C1` , is Activity under 4%?
Given back: not satisfied

---

tested on: Prevotella bivia; test: Antimicrobial activity against Prevotella bivia after 48 hrs by agar dilution method; assay type: functional
One threshold, 60 µg/mL, splits the recorded MIC90 values: lower ones are yes, equal or higher ones are no.

Asked: Problem: For the compound C[C@@H](O)[C@H]1C(=O)N2C(C(=O)O)=C(SCCNC=N)C[C@H]12 [IMIPENEM ANHYDROUS] , is MIC90 under 60 µg/mL?
Given back: yes

Asked: Problem: For the compound CO[C@@]1(NC(=O)C2SC(=C(C(N)=O)C(=O)O)S2)C(=O)N2C(C(=O)O)=C(CSc3nnnn3C)CS[C@@H]21 (stereo partly drawn) , is MIC90 under 60 µg/mL?
Given back: no

Asked: Problem: For the compound `Cc1ncc([N+](=O)[O-])n1CCO` , is MIC90 under 60 µg/mL?
Given back: yes

Asked: Problem: For the compound `CCN1CCN(C(=O)N[C@@H](C(=O)N[C@@H]2C(=O)N3[C@@H]2SC(C)(C)[C@@H]3C(=O)O)c2ccccc2)C(=O)C1=O` , is MIC90 under 60 µg/mL?
Given back: no

Asked: Problem: For the compound `CCC[C@@H]1C[C@@H](C(=O)N[C@@H]([C@H]2O[C@H](SC)[C@H](O)[C@@H](O)[C@H]2O)[C@H](C)Cl)N(C)C1` , is MIC90 under 60 µg/mL?
Given back: no

Asked: Problem: For the compound `O=C(N[C@H](CO)[C@H](O)c1ccc([N+](=O)[O-])cc1)C(Cl)Cl` , is MIC90 under 60 µg/mL?
Given back: yes

Asked: Problem: For the compound `CO[C@@]1(NC(=O)Cc2cccs2)C(=O)N2C(C(=O)O)=C(COC(N)=O)CS[C@@H]21` , is MIC90 under 60 µg/mL?
Given back: yes

Asked: Problem: For the compound `C[C@@H](O)[C@H]1C(=O)N2C(C(=O)O)=C(S[C@@H]3CN[C@H](C(=O)N(C)C)C3)[C@H](C)[C@H]12` , is MIC90 under 60 µg/mL?
Given back: yes

---

system: Schaalia odontolytica; assay: Antimicrobial activity against Actinomyces odontolyticus after 48 hrs by agar dilution method; type: functional
Give measured log10(MIC50) for each item. Keep answers brief.
Values are log10 of MIC50 in µg/mL.

Asked: Item `Cc1ncc([N+](=O)[O-])n1CCO` : provide log10(MIC50)
Given back: 1.20

Asked: Item `CO[C@@]1(NC(=O)Cc2cccs2)C(=O)N2C(C(=O)O)=C(COC(N)=O)CS[C@@H]21` : provide log10(MIC50)
Given back: 0.30

Asked: Item `COc1c(N2C[C@@H]3CCCN[C@@H]3C2)c(F)cc2c(=O)c(C(=O)O)cn(C3CC3)c12` : provide log10(MIC50)
Given back: 0.00

Asked: Item C[C@@H](O)[C@H]1C(=O)N2C(C(=O)O)=C(SCCNC=N)C[C@H]12 [IMIPENEM ANHYDROUS] : provide log10(MIC50)
Given back: -1.22

Asked: Item `CCN1CCN(C(=O)N[C@@H](C(=O)N[C@@H]2C(=O)N3[C@@H]2SC(C)(C)[C@@H]3C(=O)O)c2ccccc2)C(=O)C1=O` : provide log10(MIC50)
Given back: 0.00

Asked: Item `O=C(N[C@H](CO)[C@H](O)c1ccc([N+](=O)[O-])cc1)C(Cl)Cl` : provide log10(MIC50)
Given back: 0.00

Asked: Item CO[C@@]1(NC(=O)C2SC(=C(C(N)=O)C(=O)O)S2)C(=O)N2C(C(=O)O)=C(CSc3nnnn3C)CS[C@@H]21 (some centres undefined) : provide log10(MIC50)
Given back: 0.60

Asked: Item `C[C@@H](O)[C@H]1C(=O)N2C(C(=O)O)=C(S[C@@H]3CN[C@H](C(=O)N(C)C)C3)[C@H](C)[C@H]12` : provide log10(MIC50)
Given back: -0.90

Asked: Item `CCC[C@@H]1C[C@@H](C(=O)N[C@@H]([C@H]2O[C@H](SC)[C@H](O)[C@@H](O)[C@H]2O)[C@H](C)Cl)N(C)C1` : provide log10(MIC50)
Given back: -1.22

---

test system: Eubacterium sp.; assay: Antimicrobial activity against Eubacterium sp. assessed as percent resistant isolates after 48 hrs by agar dilution method; type: functional
measure: Activity (%)
Report only the number, with the unit % understood.

Asked: Item CO[C@@]1(NC(=O)Cc2cccs2)C(=O)N2C(C(=O)O)=C(COC(N)=O)CS[C@@H]21 [CEFOXITIN] : provide Activity
Given back: 0

Asked: Item CCN1CCN(C(=O)N[C@@H](C(=O)N[C@@H]2C(=O)N3[C@@H]2SC(C)(C)[C@@H]3C(=O)O)c2ccccc2)C(=O)C1=O [PIPERACILLIN] : provide Activity
Given back: 0

Asked: Item C[C@@H](O)[C@H]1C(=O)N2C(C(=O)O)=C(S[C@@H]3CN[C@H](C(=O)N(C)C)C3)[C@H](C)[C@H]12 [MEROPENEM] : provide Activity
Given back: 8

Asked: Item CO[C@@]1(NC(=O)C2SC(=C(C(N)=O)C(=O)O)S2)C(=O)N2C(C(=O)O)=C(CSc3nnnn3C)CS[C@@H]21 (some centres undefined) [CEFOTETAN] : provide Activity
Given back: 15
